Target: T1, EsCas13d, nuclease-dead (Eubacterium siraeum, UniProt B0MS50, R295A;H300A;R849A;H854A)
T1 sequence: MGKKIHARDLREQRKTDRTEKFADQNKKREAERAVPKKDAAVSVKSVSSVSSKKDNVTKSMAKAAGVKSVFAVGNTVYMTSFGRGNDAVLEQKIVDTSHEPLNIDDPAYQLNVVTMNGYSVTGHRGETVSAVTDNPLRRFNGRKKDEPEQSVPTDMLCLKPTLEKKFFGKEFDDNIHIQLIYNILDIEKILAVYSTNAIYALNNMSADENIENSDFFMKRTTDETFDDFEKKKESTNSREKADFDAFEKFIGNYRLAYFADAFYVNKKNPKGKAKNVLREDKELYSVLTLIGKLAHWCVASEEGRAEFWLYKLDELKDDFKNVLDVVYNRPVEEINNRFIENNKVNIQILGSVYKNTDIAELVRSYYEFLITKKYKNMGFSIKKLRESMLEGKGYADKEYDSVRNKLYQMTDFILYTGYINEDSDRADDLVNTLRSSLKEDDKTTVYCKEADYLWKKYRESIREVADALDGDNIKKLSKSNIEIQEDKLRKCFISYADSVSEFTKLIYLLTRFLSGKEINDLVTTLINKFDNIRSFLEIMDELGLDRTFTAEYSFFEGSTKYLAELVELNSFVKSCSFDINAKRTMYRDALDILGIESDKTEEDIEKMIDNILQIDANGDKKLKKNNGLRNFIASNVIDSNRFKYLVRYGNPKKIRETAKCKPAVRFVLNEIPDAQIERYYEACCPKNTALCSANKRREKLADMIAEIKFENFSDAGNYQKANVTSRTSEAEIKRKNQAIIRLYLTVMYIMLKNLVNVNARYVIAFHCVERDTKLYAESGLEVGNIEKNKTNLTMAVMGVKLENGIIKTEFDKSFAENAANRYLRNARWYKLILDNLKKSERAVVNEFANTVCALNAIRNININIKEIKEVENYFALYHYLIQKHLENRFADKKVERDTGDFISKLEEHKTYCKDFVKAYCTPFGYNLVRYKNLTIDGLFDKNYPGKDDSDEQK
Experiment: crRNA (strand 1, pre-loaded); Mg2+; 40 mM Tris-HCl pH 7.5, 150 mM NaCl, 6 mM MgCl2, 1 mM DTT, 0.1% Tween-20, 0.2 mg/ml BSA; 25 C; 10 min per concentration, then washed
Conditions: tags: His6-TwinStrep-SUMO cleaved; N-terminal SNAP kept (SNAP-Surface 488); label: 3' end held by stalled T7 RNA polymerase

>  <binder>
target 1 MT 5'PFS AGC 3'PFS UAG (mixed) RNA 1: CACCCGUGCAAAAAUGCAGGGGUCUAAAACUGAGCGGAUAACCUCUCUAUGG RNA 2: GGGAAUGGAUCCACAUCUACGAAUUCAGCCCAUAGAGAGGUUAUCCGCUCAUAGAGAUCGGAAGAGCACACGU

>  <Kd>
17 nM

$$$$
>  <binder>
target 2 MT 5'PFS CAG 3'PFS CCG (mixed) RNA 1: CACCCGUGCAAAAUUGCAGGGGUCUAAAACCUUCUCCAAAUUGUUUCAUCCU RNA 2: GGGAAUGGAUCCACAUCUACGAAUUCCAGAGGAUGAAACAAUUUGGAGAAGCCGAGAUCGGAAGAGCACACGU

>  <Kd>
11.9 nM

$$$$
>  <binder>
target 1 insG 3' of 14,insC 3' of 9 (mixed) RNA 1: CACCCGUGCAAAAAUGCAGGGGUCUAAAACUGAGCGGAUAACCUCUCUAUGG RNA 2: GGGAAUGGAUCCACAUCUACGAAUUCGUACCAUAGAGAGGGUUACUCCGCUCACCGAGAUCGGAAGAGCACACGU

>  <Kd>
12.7 nM

$$$$
>  <binder>
target 1 C7G,G15U (mixed) RNA 1: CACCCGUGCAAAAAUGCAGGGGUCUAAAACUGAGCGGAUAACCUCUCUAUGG RNA 2: GGGAAUGGAUCCACAUCUACGAAUUCGUACCAUAGAUAGGUUAUGCGCUCACCGAGAUCGGAAGAGCACACGU

>  <Kd>
30 nM

$$$$
>  <binder>
target 1 insU 3' of 21,insU 3' of 6 (mixed) RNA 1: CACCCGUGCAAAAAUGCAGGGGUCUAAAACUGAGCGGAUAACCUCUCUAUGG RNA 2: GGGAAUGGAUCCACAUCUACGAAUUCGUACCUAUAGAGAGGUUAUCCUGCUCACCGAGAUCGGAAGAGCACACGU

>  <Kd>
31.4 nM

$$$$
>  <binder>
target 3 U7G (mixed) RNA 1: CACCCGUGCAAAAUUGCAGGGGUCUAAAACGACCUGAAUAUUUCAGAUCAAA RNA 2: GGGAAUGGAUCCACAUCUACGAAUUCGUUUUUGAUCUGAAAUAUGCAGGUCUGCAGAUCGGAAGAGCACACGU

>  <Kd>
47 nM

$$$$
>  <binder>
target 2 MT 5'PFS AUA 3'PFS AAU (mixed) RNA 1: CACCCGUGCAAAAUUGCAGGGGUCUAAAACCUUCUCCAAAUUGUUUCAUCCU RNA 2: GGGAAUGGAUCCACAUCUACGAAUUCAUAAGGAUGAAACAAUUUGGAGAAGAAUAGAUCGGAAGAGCACACGU

>  <Kd>
8.6 nM

$$$$
>  <binder>
target 2 MT 5'PFS UAU 3'PFS AAA (mixed) RNA 1: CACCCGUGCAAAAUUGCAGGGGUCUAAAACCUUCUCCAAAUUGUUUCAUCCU RNA 2: GGGAAUGGAUCCACAUCUACGAAUUCUAUAGGAUGAAACAAUUUGGAGAAGAAAAGAUCGGAAGAGCACACGU

>  <Kd>
18 nM

$$$$
>  <binder>
target 1 C4A,C6U (mixed) RNA 1: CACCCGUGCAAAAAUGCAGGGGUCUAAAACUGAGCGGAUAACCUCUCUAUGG RNA 2: GGGAAUGGAUCCACAUCUACGAAUUCGUACCAUAGAGAGGUUAUCUGAUCACCGAGAUCGGAAGAGCACACGU

>  <Kd>
4.16 nM

$$$$
>  <binder>
target 3 G4U,A5U (mixed) RNA 1: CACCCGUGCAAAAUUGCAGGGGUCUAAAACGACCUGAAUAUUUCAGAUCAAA RNA 2: GGGAAUGGAUCCACAUCUACGAAUUCGUUUUUGAUCUGAAAUAUUCUUGUCUGCAGAUCGGAAGAGCACACGU

>  <Kd>
25.2 nM

$$$$
>  <binder>
target 1 insC 3' of 18,insG 3' of 9 (mixed) RNA 1: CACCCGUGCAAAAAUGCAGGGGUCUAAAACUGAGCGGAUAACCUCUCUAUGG RNA 2: GGGAAUGGAUCCACAUCUACGAAUUCGUACCAUACGAGAGGUUAGUCCGCUCACCGAGAUCGGAAGAGCACACGU

>  <Kd>
59 nM

$$$$
>  <binder>
target 1 MT 5'PFS GAA 3'PFS CGU (mixed) RNA 1: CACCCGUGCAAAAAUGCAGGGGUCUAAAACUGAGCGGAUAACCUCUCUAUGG RNA 2: GGGAAUGGAUCCACAUCUACGAAUUCGAACCAUAGAGAGGUUAUCCGCUCACGUAGAUCGGAAGAGCACACGU

>  <Kd>
15.5 nM

$$$$
>  <binder>
target 1 MT 5'PFS GUC 3'PFS AGU (mixed) RNA 1: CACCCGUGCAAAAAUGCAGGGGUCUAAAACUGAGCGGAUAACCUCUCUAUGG RNA 2: GGGAAUGGAUCCACAUCUACGAAUUCGUCCCAUAGAGAGGUUAUCCGCUCAAGUAGAUCGGAAGAGCACACGU

>  <Kd>
20.6 nM

$$$$
>  <binder>
target 1 U8C,A9C (mixed) RNA 1: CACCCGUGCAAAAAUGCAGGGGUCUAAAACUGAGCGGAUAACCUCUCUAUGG RNA 2: GGGAAUGGAUCCACAUCUACGAAUUCGUACCAUAGAGAGGUUCCCCGCUCACCGAGAUCGGAAGAGCACACGU

>  <Kd>
30.5 nM

$$$$
>  <binder>
target 1 del7,del18 (mixed) RNA 1: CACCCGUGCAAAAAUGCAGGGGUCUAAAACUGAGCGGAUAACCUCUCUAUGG RNA 2: GGGAAUGGAUCCACAUCUACGAAUUCGUACCAUGAGAGGUUAUCGCUCACCGAGAUCGGAAGAGCACACGU

>  <Kd>
58 nM

$$$$
